# target_system: NO synthase (Rattus norvegicus)
# Construct: the supernatant was then removed by decantation and frozen in portions at −80° C; from tissue; host or cells: rat cerebellum, 20,000 g supernatant of homogenate
# method_notes: HTS-NOS assay (NOS assay): conversion of radioactive arginine, cation-exchanger filter plate
# Assay type: biochemical
# condition_summary: 10 μM
Decide using HTS-NOS assay: % inhibition (10 μM): a value greater than or equal to 60% is true (1), a smaller one is false (0).

INSERT INTO results (compound, class) VALUES
  ('C#[N+]CCCCCCNc1c(-c2ccc[nH]2)nc2cc(C)cc(C)n12 [Example 4]', 'false (0)'),
  ('CC(=O)OCc1ccc(-c2nc3cc(C)ccn3c2NC2CCCCC2)o1 [Example 58]', 'true (1)'),
  ('[C-]#[N+]CCCCCCN(C(C)=O)c1c(-c2cccnc2)nc2cc(C)ccn12 [Example 241]', 'true (1)'),
  ('C#[N+]CCCCCCN(C(C)=O)c1c(-c2ccccc2OC)nc2ccc([N+](=O)[O-])cn12 [Example 238]', 'false (0)'),
  ('C#[N+]CCCCCCNc1c(-c2ccc(OC)c(OC)c2)nc2cc(C)ccn12 [Example 109]', 'false (0)');

Please check the record C#[N+]CCCCCCNc1c(-c2ccccc2C(F)(F)F)nc2cc(C)cc(C)n12 [Example 75] and state if its HTS-NOS assay: % inhibition (10 μM) is at or above 60%.
false (0)

Then C#[N+]CCCCCCNc1c(C2CCCCC2)nc2cc(C)cc(C)n12 [Example 88] ?
false (0)

Then Cc1ccn2c(NC3CCCCC3)c(-c3ccccc3C(F)(F)F)nc2c1 [Example 13] ?
false (0)

Then [C-]#[N+]CCCCCCNc1c(-c2cccnc2)nc2cc(C)cc(C)n12 [Example 59] ?
false (0)

Then [C-]#[N+]CCCCCCN(C(C)=O)c1c(-c2ccccc2OC)nc2cc(C)ccn12 [Example 281] ?
true (1)

Then C#[N+]CCCCCCNc1c(-c2cccc3ccccc23)nc2cc(C)ccn12 [Example 122] ?
false (0)

Then [C-]#[N+]CCCCCCNc1c(-c2ccccc2Br)nc2cc(C)ccn12 [Example 137] ?
false (0)

Then [C-]#[N+]CCCCCCNc1c(-c2cc3ccccc3c3ccccc23)nc2cc(C)ccn12 [Example 118] ?
false (0)

Data provenance is patent US20040023972A1.
